# system-tested: Bcr/Abl fusion protein (Homo sapiens, UniProt P00519)
# Sequence (P00519 whole entry, the tested form may be a part): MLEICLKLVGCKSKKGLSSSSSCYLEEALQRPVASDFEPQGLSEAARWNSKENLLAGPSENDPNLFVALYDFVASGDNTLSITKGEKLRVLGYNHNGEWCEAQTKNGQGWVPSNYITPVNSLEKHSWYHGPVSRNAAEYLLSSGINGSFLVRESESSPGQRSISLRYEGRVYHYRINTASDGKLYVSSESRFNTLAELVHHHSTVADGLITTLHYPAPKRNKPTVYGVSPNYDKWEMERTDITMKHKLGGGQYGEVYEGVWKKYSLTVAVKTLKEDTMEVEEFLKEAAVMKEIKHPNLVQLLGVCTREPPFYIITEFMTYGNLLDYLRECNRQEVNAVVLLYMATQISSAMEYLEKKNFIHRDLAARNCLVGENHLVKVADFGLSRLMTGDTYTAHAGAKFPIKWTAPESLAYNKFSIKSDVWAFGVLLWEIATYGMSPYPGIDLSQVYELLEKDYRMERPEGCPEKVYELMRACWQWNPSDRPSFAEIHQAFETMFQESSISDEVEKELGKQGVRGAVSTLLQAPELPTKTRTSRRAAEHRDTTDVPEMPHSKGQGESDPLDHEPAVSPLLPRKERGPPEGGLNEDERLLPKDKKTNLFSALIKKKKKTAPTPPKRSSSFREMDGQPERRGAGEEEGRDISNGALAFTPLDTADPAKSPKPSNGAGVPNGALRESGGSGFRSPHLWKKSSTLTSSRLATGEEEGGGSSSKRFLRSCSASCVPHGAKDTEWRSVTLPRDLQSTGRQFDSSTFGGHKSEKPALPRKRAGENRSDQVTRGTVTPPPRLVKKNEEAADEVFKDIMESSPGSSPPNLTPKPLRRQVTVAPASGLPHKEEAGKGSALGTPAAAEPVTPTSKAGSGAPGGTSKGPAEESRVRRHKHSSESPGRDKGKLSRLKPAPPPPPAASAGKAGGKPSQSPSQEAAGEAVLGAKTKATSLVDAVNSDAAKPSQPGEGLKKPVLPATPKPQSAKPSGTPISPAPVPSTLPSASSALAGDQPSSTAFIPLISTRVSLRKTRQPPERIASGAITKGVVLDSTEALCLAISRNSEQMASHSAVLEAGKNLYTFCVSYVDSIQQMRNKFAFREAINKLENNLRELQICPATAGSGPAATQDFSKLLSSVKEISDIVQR
# Sequence (P11274 whole entry, further chain, the tested form may be a part): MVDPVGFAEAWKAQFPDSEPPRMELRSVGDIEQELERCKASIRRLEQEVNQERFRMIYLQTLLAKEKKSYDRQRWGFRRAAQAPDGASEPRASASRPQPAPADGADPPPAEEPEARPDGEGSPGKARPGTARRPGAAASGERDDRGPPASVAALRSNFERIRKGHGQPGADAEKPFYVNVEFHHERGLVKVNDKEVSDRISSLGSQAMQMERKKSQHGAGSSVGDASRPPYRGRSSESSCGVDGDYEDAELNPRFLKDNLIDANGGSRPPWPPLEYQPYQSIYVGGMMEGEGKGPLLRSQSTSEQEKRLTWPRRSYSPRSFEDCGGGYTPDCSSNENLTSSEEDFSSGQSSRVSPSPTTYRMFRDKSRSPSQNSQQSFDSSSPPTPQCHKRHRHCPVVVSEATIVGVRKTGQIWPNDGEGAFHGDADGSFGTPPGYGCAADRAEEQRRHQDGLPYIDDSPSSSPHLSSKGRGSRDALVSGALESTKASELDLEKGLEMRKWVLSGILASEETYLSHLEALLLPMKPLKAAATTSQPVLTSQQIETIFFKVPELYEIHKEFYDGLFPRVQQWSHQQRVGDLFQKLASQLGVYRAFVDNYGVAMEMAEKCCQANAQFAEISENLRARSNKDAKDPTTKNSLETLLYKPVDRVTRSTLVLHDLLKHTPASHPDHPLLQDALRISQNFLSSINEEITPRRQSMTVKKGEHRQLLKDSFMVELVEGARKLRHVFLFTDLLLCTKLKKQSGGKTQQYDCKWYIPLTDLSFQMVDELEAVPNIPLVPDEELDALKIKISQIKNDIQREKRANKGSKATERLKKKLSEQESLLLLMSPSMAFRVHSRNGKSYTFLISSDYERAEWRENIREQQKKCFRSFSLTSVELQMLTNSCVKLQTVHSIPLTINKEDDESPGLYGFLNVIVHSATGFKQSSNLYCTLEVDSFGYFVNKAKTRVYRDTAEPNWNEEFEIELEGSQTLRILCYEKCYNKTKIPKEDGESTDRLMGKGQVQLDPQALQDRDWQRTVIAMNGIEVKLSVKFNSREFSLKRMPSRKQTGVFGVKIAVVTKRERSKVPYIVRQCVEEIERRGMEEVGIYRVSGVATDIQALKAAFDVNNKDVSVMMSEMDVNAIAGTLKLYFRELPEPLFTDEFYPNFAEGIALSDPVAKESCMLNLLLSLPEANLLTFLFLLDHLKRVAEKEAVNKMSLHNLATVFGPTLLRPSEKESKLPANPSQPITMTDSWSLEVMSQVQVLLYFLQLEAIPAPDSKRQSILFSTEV
# method: Inhibition of Bcr-Abl (unknown origin)
experimental-endpoint: IC50 (nM)
Write the answer as a number in nM, unit excluded.

Which IC50 is reported for this molecule? O=C(Nc1cccc(Nc2nccc(-c3cccnc3)n2)c1)c1ccccc1
200

----------
# method: Metabolic stability in rat liver microsomes assessed as hepatic clearance
experimental-endpoint: CLhep predicted (mL/min/kg)
The reply should be a number in mL/min/kg, with the unit left off.

// returns reported CLhep predicted for input O=C1C2=C(CCN(Cc3ccccc3)C2)N2CCN=C2N1Cc1ccc(C(F)(F)F)cc1
51.9

----------
# method: Metabolic stability in human liver microsomes assessed as half life
experimental-endpoint: half-life (h)
Dear colleague, please return just the value in h, with no unit written.

• O=C1C2=C(CCN(Cc3ccccc3)C2)N2CCN=C2N1Cc1ccc(C(F)(F)F)cc1 = 10.2

Proceed to the following item.
May I ask what half-life has been recorded for Cc1ccccc1CN1C(=O)C2=C(CCN(Cc3ccccc3)C2)N2CCN=C12.Cl.Cl.O ?
9.3

----------
# method: Metabolic stability in rat liver microsomes assessed as hepatic extraction
experimental-endpoint: hepatic extraction ratio

I am curious: what hepatic extraction ratio value has been reported for O=C1C2=C(CCN(Cc3ccccc3)C2)N2CCN=C2N1Cc1ccc(C(F)(F)F)cc1 ?
0.941

----------
# method: MRT in ICR mouse at 10 mg/kg, po measured upto 24 hrs by LC-MS/MS analysis
# condition-notes: in vivo
experimental-endpoint: MRT at 24 h (h)
Give just the number in h; leave the unit off.

What does the data say about its MRT at 24 h? Entry: O=C1C2=C(CCN(Cc3ccccc3)C2)N2CCN=C2N1Cc1ccc(C(F)(F)F)cc1
4.65

----------
# method: in vivo
# condition-notes: ICR, mouse, po, 15 mg/kg
# Description: Tmax in ICR mouse at 15 mg/kg, po measured upto 24 hrs by LC-MS/MS analysis
experimental-endpoint: Tmax at 24 h (min)
Hi! Could you send only the number? It should be in min, unit omitted.

Fill in: Tmax at 24 h of Cc1ccccc1CN1C(=O)C2=C(CCN(Cc3ccccc3)C2)N2CCN=C12.Cl.Cl.O is ___
25.2

----------
# method: MRT in ICR mouse at 5 mg/kg, iv measured upto 24 hrs by LC-MS/MS analysis
# condition-notes: in vivo
experimental-endpoint: MRT at 24 h (min)
State the answer as a number, implicitly in min.

Would you kindly share the measured MRT at 24 h for Cc1ccccc1CN1C(=O)C2=C(CCN(Cc3ccccc3)C2)N2CCN=C12.Cl.Cl.O ?
51.6

----------
# method: MRT in ICR mouse at 2 mg/kg, iv measured upto 24 hrs by LC-MS/MS analysis
# condition-notes: in vivo
experimental-endpoint: MRT at 24 h (h)
Express the result in h but write the number alone.

If you can, please state the reported MRT at 24 h value of O=C1C2=C(CCN(Cc3ccccc3)C2)N2CCN=C2N1Cc1ccc(C(F)(F)F)cc1 .
1.72

----------
# Tested on: OCI-Ly10
# method: Antiproliferative activity against human OCI-Ly10 cells assessed as cell viability measured after 72 hrs incubation by CellTiter-based growth inhibition assay
# condition-notes: OCI-Ly10, 72 h
experimental-endpoint: pIC50
Just the number, please; pIC50 means minus log10 of the concentration in mol/L.

Example compounds with recorded pIC50:
* Cc1cc(Br)ccc1CNc1nc2c(c(=O)[nH]1)CN(Cc1cccc(C#N)c1)[C@H](C)C2 | 7.06
* C[C@@H]1Cc2nc(NCc3ccc(C(F)(F)F)cc3)[nH]c(=O)c2CN1Cc1cccnc1 | 5.11
* C[C@@H]1Cc2nc(NCc3ccc(C(F)(F)F)cc3)[nH]c(=O)c2CN1Cc1ccccc1O | 5.89
* C[C@@H]1Cc2nc(NCc3cccc4ccccc34)[nH]c(=O)c2CN1Cc1cccc(C#N)c1 | 6.98
* C[C@@H]1Cc2nc(NCc3ccc(Br)c(F)c3)[nH]c(=O)c2CN1Cc1cccc(C#N)c1 | 7.32

Reported pIC50 for OCI-Ly10, given COc1cccc(CN2Cc3c(nc(NCc4ccc(C(F)(F)F)cc4)[nH]c3=O)C[C@H]2C)c1 ?
5.05

Field entry: C[C@@H]1Cc2nc(NCc3ccc(C(F)(F)F)cc3)[nH]c(=O)c2CN1Cc1cccc(Cl)c1
6.96
